- testedTarget: human MDM2 protein (amino acids 1-125) (Homo sapiens, UniProt Q00987)
- Sequence (Q00987 1-125 limits assumed): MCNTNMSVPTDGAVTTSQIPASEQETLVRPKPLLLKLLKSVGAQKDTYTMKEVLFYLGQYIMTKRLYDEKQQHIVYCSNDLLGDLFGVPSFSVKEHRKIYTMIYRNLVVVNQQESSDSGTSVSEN
- assay: fluorescence polarization competition, FAM-12/1 tracer, MDM2; FP assay: no binding, Kd capped at 10000 nM
Positions of bridges follow the written chain, without caps; N, C: chain ends. Non-standard residues stand in square brackets, D forms with d. No end group written: not given here. dPhe(4-CF3) = N[C@H](Cc1ccc(C(F)(F)F)cc1)C(=O)O; dTrp(6-F) = N[C@H](Cc1c[nH]c2cc(F)ccc12)C(=O)O; R5 = C=CCCC[C@@](C)(N)C(=O)O
endpoint: Kd

# input binder: [dT][dA][dTrp(6-F)][dY][R5][dN][dPhe(4-CF3)][dE][R5][dL][dL][dR]-NH2 (staple 5-9) [^DPMI-δ(5-9)] ; wanted: its Kd
> 10 µM
